Data provenance is patent US8846643B2.

System: Huh 7.5 cells
assay.info: cytotoxicity (CC50) in HCV replicon cells / Huh 7.5 liver cells
assay.setup: cytotoxicity in replicon cells

>  <molecule>
CCCCCCCCCCCCCCCCCCOCCOP(=O)(O)CO[C@@H](COC)Cn1cnc2c(=O)[nH]c(N)nc21 [Cmpd 35]

>  <CC50>
> 150 µM

$$$$
>  <molecule>
CCCCCCCCCCCCCCCCCCOCCOP(=O)(O)CO[C@H](COC)Cn1cnc2c(N)nc(N)nc21 [Cmpd 23]

>  <CC50>
99 µM

$$$$
>  <molecule>
CCCCCCCCCCCCCCCCOCCCOP(=O)(O)COC(COCC)Cn1cnc2c(N)nc(N)nc21 (racemic) [Cmpd 26]

>  <CC50>
> 150 µM

$$$$
>  <molecule>
CCCCCCCCCCCCCCCCOCCCOP(=O)(O)COC(COCC)Cn1cnc2c(=O)[nH]c(N)nc21 (racemic) [Cmpd 37]

>  <CC50>
> 150 µM

$$$$
>  <molecule>
CCCCCCCCCCCCCCCCCCOCCOP(=O)(O)CO[C@H](COC)Cn1cnc2c(N)ncnc21 [Cmpd 15]

>  <CC50>
> 150 µM

$$$$
